# Assayed System: T1, murine CD22 protein (ACROBiosystems, SI2-M52Ha) (murine, UniProt P35329 22-708)
# T1 construct: extracellular domain; also called murine CD22-ECD; murine CD22-ECD-His
# T1 sequence (looked up): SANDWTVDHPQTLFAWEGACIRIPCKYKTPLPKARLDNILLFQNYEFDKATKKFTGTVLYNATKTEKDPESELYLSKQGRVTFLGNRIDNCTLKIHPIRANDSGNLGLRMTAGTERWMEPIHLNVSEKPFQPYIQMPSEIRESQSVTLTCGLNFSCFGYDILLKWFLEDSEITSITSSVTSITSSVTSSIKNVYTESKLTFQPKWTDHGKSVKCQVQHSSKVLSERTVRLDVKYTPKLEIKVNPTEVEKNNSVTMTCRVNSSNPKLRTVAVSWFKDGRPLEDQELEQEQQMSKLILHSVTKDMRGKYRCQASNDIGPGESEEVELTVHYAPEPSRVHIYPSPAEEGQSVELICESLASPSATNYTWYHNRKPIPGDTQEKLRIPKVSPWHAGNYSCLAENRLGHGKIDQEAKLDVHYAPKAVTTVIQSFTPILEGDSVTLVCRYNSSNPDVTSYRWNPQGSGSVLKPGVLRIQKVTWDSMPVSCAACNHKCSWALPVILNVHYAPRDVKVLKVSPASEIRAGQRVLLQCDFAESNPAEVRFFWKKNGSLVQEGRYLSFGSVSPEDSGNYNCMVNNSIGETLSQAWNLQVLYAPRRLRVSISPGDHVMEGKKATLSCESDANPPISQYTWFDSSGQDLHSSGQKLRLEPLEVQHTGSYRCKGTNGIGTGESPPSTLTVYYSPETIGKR
# Assay Protocol: ELISA, coated murine CD22, 100 nM Ab
binders and their reported OD450

[
  {
    "Binder": "F1.231.15 human-murine chimeric antibody (antibody, human IgG1, V domains shown, Chimeric: murine V regions on human IgG1 heavy constant region and kappa light constant region) VH: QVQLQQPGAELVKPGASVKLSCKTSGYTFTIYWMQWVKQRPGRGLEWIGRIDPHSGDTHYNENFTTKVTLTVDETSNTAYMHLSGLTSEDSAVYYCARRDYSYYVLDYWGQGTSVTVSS VL: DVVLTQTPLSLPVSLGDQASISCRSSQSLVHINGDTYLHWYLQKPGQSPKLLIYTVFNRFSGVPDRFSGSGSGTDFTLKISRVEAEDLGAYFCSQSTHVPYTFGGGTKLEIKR",
    "Measurement Unit": "OD450",
    "OD450": 0.06
  },
  {
    "Binder": "HA22-hIgG1 (antibody, V domains shown) VH: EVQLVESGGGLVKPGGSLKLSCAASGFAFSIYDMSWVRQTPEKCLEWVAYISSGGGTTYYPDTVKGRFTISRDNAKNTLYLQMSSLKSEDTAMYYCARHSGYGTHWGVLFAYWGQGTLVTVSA VL: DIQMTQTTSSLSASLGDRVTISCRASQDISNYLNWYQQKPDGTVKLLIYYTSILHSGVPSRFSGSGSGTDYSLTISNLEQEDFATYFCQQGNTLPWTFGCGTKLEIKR",
    "Measurement Unit": "OD450",
    "OD450": 0.1
  }
]
